Examples of binders with documented Kd follow.
- Target under test: T1, BurrH (Burkholderia rhizoxinica, UniProt E5AV36 1-771)
- T1 sequence: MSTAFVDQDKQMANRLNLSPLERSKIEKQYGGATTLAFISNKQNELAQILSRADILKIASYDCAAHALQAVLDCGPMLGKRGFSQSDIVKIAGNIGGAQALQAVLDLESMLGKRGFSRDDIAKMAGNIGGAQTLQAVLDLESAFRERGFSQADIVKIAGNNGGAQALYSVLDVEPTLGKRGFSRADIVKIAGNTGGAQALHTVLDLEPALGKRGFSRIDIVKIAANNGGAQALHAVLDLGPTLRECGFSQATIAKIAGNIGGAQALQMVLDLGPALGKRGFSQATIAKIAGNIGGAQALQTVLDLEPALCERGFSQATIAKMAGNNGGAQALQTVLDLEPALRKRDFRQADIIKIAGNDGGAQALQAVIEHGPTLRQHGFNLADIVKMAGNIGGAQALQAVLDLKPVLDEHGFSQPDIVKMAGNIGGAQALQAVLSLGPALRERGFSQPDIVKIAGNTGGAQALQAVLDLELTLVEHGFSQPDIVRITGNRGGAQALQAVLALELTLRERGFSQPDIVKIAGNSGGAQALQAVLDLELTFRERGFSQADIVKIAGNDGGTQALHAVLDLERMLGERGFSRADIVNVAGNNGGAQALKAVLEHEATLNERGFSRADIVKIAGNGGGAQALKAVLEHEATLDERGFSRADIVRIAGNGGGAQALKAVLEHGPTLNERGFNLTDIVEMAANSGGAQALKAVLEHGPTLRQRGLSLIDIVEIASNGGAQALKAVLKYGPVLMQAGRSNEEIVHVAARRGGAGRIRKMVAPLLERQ
- Procedure text: ITC; FA and ITC: 25 mM HEPES pH 8, 150 mM NaCl, 0.2 mM TCEP, 298 K; SPR: HBS-EP+ (10 mM HEPES pH 7.4, 150 mM NaCl, 3 mM EDTA, 0.05% P20), 298 K
- Conditions: protein: recombinant
Property label: Kd

INSERT INTO results (binder, reported_result) VALUES
  ('BurrH target C0 (dsDNA) DNA 1: TCAAGAGAAGCAAATACGTTATA DNA 2: TATAACGTATTTGCTTCTCTTGA', '15 nM'),
  ('BurrH target A0 (dsDNA) DNA 1: TAAAGAGAAGCAAATACGTTATA DNA 2: TATAACGTATTTGCTTCTCTTTA', '15 nM'),
  ('BurrH DNA target duplex (dsDNA) DNA 1: TTAAGAGAAGCAAATACGTTATA DNA 2: TATAACGTATTTGCTTCTCTTAA', '25 nM'),
  ('BurrH target G0 (dsDNA) DNA 1: TGAAGAGAAGCAAATACGTTATA DNA 2: TATAACGTATTTGCTTCTCTTCA', '24 nM');

Entry source: paper PMC4089491
